Cited source for all entries: PubChem BioAssay AID1963836

System: 857933-349-R-J2-PDC complex spheroid viability
Assay: Anticancer human tumor 857933-349-R-J2-PDC patient-derived colon adenocarcinoma cell line growth inhibition [POLQ]; active means viability on the fitted dose curve at most 10% of control; inactive means the rest
Settings: second compound 1 µM; first compound 10 µM
Classes to choose from: True for active, False for inactive

Some solved cases for reference:
compound	target.or.test.system	classification
COc1cc(C2c3cc4c(cc3C(OC3OC5COC(C)OC5C(O)C3O)C3COC(=O)C23)OCO4)cc(OC)c1O (stereo unspecified) + COC1C(OC(N)=O)C(O)C(Oc2ccc3c(O)c(NC(=O)c4ccc(O)c(CC=C(C)C)c4)c(=O)oc3c2C)OC1(C)C	857933-349-R-J2-PDC complex spheroid viability	False
CC1COCCN1c1cc(C2(S(C)(=N)=O)CC2)nc(-c2ccnc3[nH]ccc23)n1 (stereo unspecified) + COC1C(OC(N)=O)C(O)C(Oc2ccc3c(O)c(NC(=O)c4ccc(O)c(CC=C(C)C)c4)c(=O)oc3c2C)OC1(C)C	857933-349-R-J2-PDC complex spheroid viability	False
COc1cccc2c1C(=O)c1c(O)c3c(c(O)c1C2=O)CC(O)(C(=O)CO)CC3OC1CC(N)C(O)C(C)O1 (stereo unspecified) + Cc1cccc(N(C)C(=O)C2C(O)CCN2c2nc(C)cc(C(F)(F)F)c2C#N)c1	857933-349-R-J2-PDC complex spheroid viability	True
Nc1ccn(C2OC(CO)C(O)C2(F)F)c(=O)n1 (stereo unspecified) + Nc1ccc(C#CCN(C(=O)Cc2ncc(C(F)(F)F)cc2C(F)(F)F)c2ccc(F)cc2)nn1	857933-349-R-J2-PDC complex spheroid viability	True
O=c1[nH]cc(F)c(=O)[nH]1 + Nc1ccc(C#CCN(C(=O)Cc2ncc(C(F)(F)F)cc2C(F)(F)F)c2ccc(F)cc2)nn1	857933-349-R-J2-PDC complex spheroid viability	False

// switching to the query compound
Call for entry C#Cc1c(F)ccc2cc(O)cc(-c3ncc4c(N5CC6CCC(C5)N6)nc(OCC56CCCN5CC(F)C6)nc4c3F)c12 (stereo unspecified) + COC1C(OC(N)=O)C(O)C(Oc2ccc3c(O)c(NC(=O)c4ccc(O)c(CC=C(C)C)c4)c(=O)oc3c2C)OC1(C)C :
False

====

Listed here: items and their measured viability, T/C.
Test system: 857933-349-R-J2-PDC complex spheroid viability
Test: Anticancer human tumor 857933-349-R-J2-PDC cell line growth inhibition [POLQ];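 further: spheroids exposed to compounds for seven days before readout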
Settings: second compound 10 µM; first compound 0.316 µM; stronger effect = lower value
Protocol: Multicellular complex tumor spheroid response to Polymerase (POL) inhibitors (novobiocin, ART-558, RP6685) in combination with a variety of drugs and investigational agents in selected tumor cell lines The POL inhibitors (novobiocin, ART-558, and RP6685) were evaluated both individually and in combination with standard of care and investigational anticancer small molecules within a complex spheroid model of solid tumors. . […]
Hi! Could you send only the number? It should be in %, unit omitted.

Below: 9 compounds and their reported viability, T/C.
compound	metric.name	quantitative.result
CCc1c2c(nc3ccc(O)cc13)-c1cc3c(c(=O)n1C2)COC(=O)[C@]3(O)CC + COC1C(OC(N)=O)C(O)C(Oc2ccc3c(O)c(NC(=O)c4ccc(O)c(CC=C(C)C)c4)c(=O)oc3c2C)OC1(C)C	viability, T/C	12.2
CCCS(=O)(=O)Nc1ccc(F)c(C(=O)c2c[nH]c3ncc(-c4ccc(Cl)cc4)cc23)c1F + COC1C(OC(N)=O)C(O)C(Oc2ccc3c(O)c(NC(=O)c4ccc(O)c(CC=C(C)C)c4)c(=O)oc3c2C)OC1(C)C	viability, T/C	93.7
CC(C)n1c(=O)n(C)c2cnc3cc(F)c(-c4ccc(OCCCN5CCCCC5)nc4)cc3c21 + Cc1cccc(N(C)C(=O)C2C(O)CCN2c2nc(C)cc(C(F)(F)F)c2C#N)c1	viability, T/C	87.9
O=c1[nH]cc(F)c(=O)[nH]1 + Nc1ccc(C#CCN(C(=O)Cc2ncc(C(F)(F)F)cc2C(F)(F)F)c2ccc(F)cc2)nn1	viability, T/C	92.7
O=C(c1cc(Cc2n[nH]c(=O)c3ccccc23)ccc1F)N1CCN(C(=O)C2CC2)CC1 + COC1C(OC(N)=O)C(O)C(Oc2ccc3c(O)c(NC(=O)c4ccc(O)c(CC=C(C)C)c4)c(=O)oc3c2C)OC1(C)C	viability, T/C	79.3
C#Cc1c(F)ccc2cc(O)cc(-c3ncc4c(N5CC6CCC(C5)N6)nc(OCC56CCCN5CC(F)C6)nc4c3F)c12 (stereo not given) + COC1C(OC(N)=O)C(O)C(Oc2ccc3c(O)c(NC(=O)c4ccc(O)c(CC=C(C)C)c4)c(=O)oc3c2C)OC1(C)C	viability, T/C	93
COc1ccc([C@@H](O)c2cc(-c3ncnc4cc(N5CCOCC5)ccc34)c(F)cc2Cl)nn1 + COC1C(OC(N)=O)C(O)C(Oc2ccc3c(O)c(NC(=O)c4ccc(O)c(CC=C(C)C)c4)c(=O)oc3c2C)OC1(C)C	viability, T/C	107
CCc1cc2c(N3CCc4c(cc(Cn5ccnc5)cc4-c4cn(C)nc4C(F)(F)F)C3=O)ccnc2c(OC)n1 + Cc1cccc(N(C)C(=O)C2C(O)CCN2c2nc(C)cc(C(F)(F)F)c2C#N)c1	viability, T/C	80.1
CCCS(=O)(=O)Nc1ccc(F)c(C(=O)c2c[nH]c3ncc(-c4ccc(Cl)cc4)cc23)c1F + Nc1ccc(C#CCN(C(=O)Cc2ncc(C(F)(F)F)cc2C(F)(F)F)c2ccc(F)cc2)nn1	viability, T/C	93.4

Recorded viability, T/C for CC1COCCN1c1cc(C2(O)CC3CCC(C2)O3)c2cnn(-c3ccn[nH]3)c2n1 (stereo not given) + COC1C(OC(N)=O)C(O)C(Oc2ccc3c(O)c(NC(=O)c4ccc(O)c(CC=C(C)C)c4)c(=O)oc3c2C)OC1(C)C , please?
52.8

====

System: 857933-349-R-J2-PDC complex spheroid viability
Assay: Anticancer human tumor 857933-349-R-J2-PDC cell line growth inhibition [POLQ];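 further: spheroids exposed to compounds for seven days before readout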
Details: second compound 0.0316 µM; first compound 10 µM; stronger effect = lower value
metric.name: viability, T/C (%)
Hi! Could you send only the number? It should be in %, unit omitted.

compound	unit.of.measure	viability, T/C
CC1COCCN1c1cc(C2(O)CC3CCC(C2)O3)c2cnn(-c3ccn[nH]3)c2n1 (stereo not drawn) + Nc1ccc(C#CCN(C(=O)Cc2ncc(C(F)(F)F)cc2C(F)(F)F)c2ccc(F)cc2)nn1	%	47.6

Recorded viability, T/C for C#Cc1c(F)ccc2cc(O)cc(-c3ncc4c(N5CC6CCC(C5)N6)nc(OCC56CCCN5CC(F)C6)nc4c3F)c12 (stereo not drawn) + COC1C(OC(N)=O)C(O)C(Oc2ccc3c(O)c(NC(=O)c4ccc(O)c(CC=C(C)C)c4)c(=O)oc3c2C)OC1(C)C , please?
99.2

Recorded viability, T/C for C=CC(=O)N1CCN(c2nc(=O)n(-c3c(C)ccnc3C(C)C)c3nc(-c4c(O)cccc4F)c(F)cc23)C(C)C1 (stereo not drawn) + Cc1cccc(N(C)C(=O)C2C(O)CCN2c2nc(C)cc(C(F)(F)F)c2C#N)c1 , please?
80.5

====

Test system: 857933-349-R-J2-PDC complex spheroid viability
Experiment: Anticancer human tumor 857933-349-R-J2-PDC cell line growth inhibition [POLQ];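 further: spheroids exposed to compounds for seven days before readout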
Settings: curve of first compound; second compound 1 µM
metric.name: IC50 (nM)
Hi! Could you send only the number? It should be in nM, unit omitted.

Below: 4 compounds and their reported IC50.
compound	target.or.test.system	unit.of.measure	IC50
CC(=O)O[C@H]1C(=O)[C@@]2(C)[C@H]([C@H](OC(=O)c3ccccc3)[C@]3(O)C[C@H](OC(=O)[C@H](O)[C@@H](NC(=O)c4ccccc4)c4ccccc4)C(C)=C1C3(C)C)[C@]1(OC(C)=O)CO[C@@H]1C[C@@H]2O + Nc1ccc(C#CCN(C(=O)Cc2ncc(C(F)(F)F)cc2C(F)(F)F)c2ccc(F)cc2)nn1	857933-349-R-J2-PDC complex spheroid viability	nM	11.2
COc1cccc2c1C(=O)c1c(O)c3c(c(O)c1C2=O)CC(O)(C(=O)CO)CC3OC1CC(N)C(O)C(C)O1 (stereo not given) + Nc1ccc(C#CCN(C(=O)Cc2ncc(C(F)(F)F)cc2C(F)(F)F)c2ccc(F)cc2)nn1	857933-349-R-J2-PDC complex spheroid viability	nM	216
COc1cc(C2c3cc4c(cc3C(OC3OC5COC(C)OC5C(O)C3O)C3COC(=O)C23)OCO4)cc(OC)c1O (stereo not given) + Nc1ccc(C#CCN(C(=O)Cc2ncc(C(F)(F)F)cc2C(F)(F)F)c2ccc(F)cc2)nn1	857933-349-R-J2-PDC complex spheroid viability	nM	532
Nc1ccn(C2OC(CO)C(O)C2(F)F)c(=O)n1 (stereo not given) + Cc1cccc(N(C)C(=O)C2C(O)CCN2c2nc(C)cc(C(F)(F)F)c2C#N)c1	857933-349-R-J2-PDC complex spheroid viability	nM	141

Query compound follows.
Recorded IC50 for CC1COCCN1c1cc(C2(O)CC3CCC(C2)O3)c2cnn(-c3ccn[nH]3)c2n1 (stereo not given) + Cc1cccc(N(C)C(=O)C2C(O)CCN2c2nc(C)cc(C(F)(F)F)c2C#N)c1 , please?
202
